# credit: PubChem BioAssay (NCI)

What TGI was measured for each of the following?
Test system: DU-145 prostate
ASSAY_METHOD_TEXT: NCI tumour cell line growth inhibition, 48 h
Where a SMILES comes first, the peptide text is derived from it.

{"COMPOUND": "Cc1cn(CCCCOC(=O)NC(CCCN=C(N)N)C(=O)O)c(=O)[nH]c1=O (stereo unspecified)", "STUDY_SYSTEM": "DU-145 prostate", "TGI": "> 100 µM"}

List TGI for every entry below, keeping the order given.
1. N#Cc1ccc2[nH]cc(Cc3c[nH]c4ccc(C#N)cc34)c2c1
2. COc1ccc2c(c1)c1ccc3c(c1n2C)C(=O)C=CC3=O
3. CC(=O)NC(CS)C(=O)NC(CO)C(=O)NC(CO)C(=O)NC(Cc1c[nH]c2ccccc12)C(=O)N1CCCC1C(=O)NC(CO)C(=O)NC(Cc1c[nH]c2ccccc12)C(=O)NC(Cc1c[nH]cn1)C(=O)NC(CO)C(=O)NC(Cc1c[nH]c2ccccc12)C(=O)NCC(=O)NCC(=O)NC(C)C(=O)NC(CCC(N)=O)C(=O)NC(CCCCN)C(=O)NC(C)C(=O)NC(CCCNC(=N)N)C(=O)NC(CCCCN)C(N)=O (stereo unspecified) (Ac-CSSWPSWHSWGGAQKARK-NH2; configuration not given here)
4. COC1=CC(c2ccc[nH]2)=N/C1=C\c1[nH]c(C)c(CC(=O)NCc2ccccc2)c1C

> 50 µM
15 µM
> 50 µM
2.82 µM

// lookup TGI for COC(=O)Cc1cccc2c(=O)c(S(=O)(=O)NC(=O)Nc3ccc(Cl)cc3)c(-c3ccccc3)oc12 > 100 µM
